Target: T1, IL-6R-Fc 항원 (human, UniProt P08887 20-365, limits assumed)
T1 construct: domain: IL-6R full domain; Made in-house as IL-6R-Fc; also called IL-6R full; IL-6R full domain인 단백질; not shown: Fc part (vector pYK 604)
T1 sequence (looked up): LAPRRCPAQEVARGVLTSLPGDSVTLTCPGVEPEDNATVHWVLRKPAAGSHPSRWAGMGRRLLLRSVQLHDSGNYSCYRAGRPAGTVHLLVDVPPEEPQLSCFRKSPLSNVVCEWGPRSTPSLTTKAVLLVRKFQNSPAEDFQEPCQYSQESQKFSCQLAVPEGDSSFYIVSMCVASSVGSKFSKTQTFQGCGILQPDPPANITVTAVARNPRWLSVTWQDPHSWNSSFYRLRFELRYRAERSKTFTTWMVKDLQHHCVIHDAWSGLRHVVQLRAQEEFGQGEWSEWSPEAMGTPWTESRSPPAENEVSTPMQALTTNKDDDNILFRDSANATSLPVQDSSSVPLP
Experiment: ELISA; IL-6R coated 100 ng/well; IgG at 0.39063 nM; anti-Fab-HRP
QUANTITY KIND: OD 490 nm (OD490)
Give just the number in OD490; leave the unit off.

Solved entries:
BINDER: 항 IL-6R 단클론 항체 F2 (antibody, V domains shown) VH: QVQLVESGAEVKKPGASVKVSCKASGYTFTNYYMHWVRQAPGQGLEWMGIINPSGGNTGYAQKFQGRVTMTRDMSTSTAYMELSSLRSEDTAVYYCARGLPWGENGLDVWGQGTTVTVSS VL: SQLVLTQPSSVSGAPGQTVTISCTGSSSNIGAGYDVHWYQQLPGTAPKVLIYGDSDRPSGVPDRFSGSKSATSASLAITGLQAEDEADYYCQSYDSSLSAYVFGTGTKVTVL
RECORDED NUMBER: 1.41
--
BINDER: 항 IL-6R 단클론 항체 B10 (antibody, V domains shown) VH: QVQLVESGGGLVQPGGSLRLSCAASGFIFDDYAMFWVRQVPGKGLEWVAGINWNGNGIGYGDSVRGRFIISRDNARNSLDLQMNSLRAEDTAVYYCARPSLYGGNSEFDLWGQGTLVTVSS VL: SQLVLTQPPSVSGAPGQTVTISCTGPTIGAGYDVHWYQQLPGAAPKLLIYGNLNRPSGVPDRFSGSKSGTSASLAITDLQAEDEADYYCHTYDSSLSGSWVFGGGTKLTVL
RECORDED NUMBER: 0.476

Field: next binder
Problem: Consider the binder 항 IL-6R 단클론 항체 D2 (antibody, V domains shown) VH: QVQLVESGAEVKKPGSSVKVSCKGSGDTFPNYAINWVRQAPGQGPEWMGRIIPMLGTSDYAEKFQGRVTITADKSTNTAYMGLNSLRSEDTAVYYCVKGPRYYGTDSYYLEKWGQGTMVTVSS VL: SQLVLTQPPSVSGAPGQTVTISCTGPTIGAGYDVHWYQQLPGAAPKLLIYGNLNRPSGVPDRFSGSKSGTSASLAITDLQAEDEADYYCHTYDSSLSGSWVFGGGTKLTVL and give its recorded OD 490 nm.
Result: 0.473
